# Tested Target: Protein kinase C iota type (Homo sapiens)
# Sequence (whole entry): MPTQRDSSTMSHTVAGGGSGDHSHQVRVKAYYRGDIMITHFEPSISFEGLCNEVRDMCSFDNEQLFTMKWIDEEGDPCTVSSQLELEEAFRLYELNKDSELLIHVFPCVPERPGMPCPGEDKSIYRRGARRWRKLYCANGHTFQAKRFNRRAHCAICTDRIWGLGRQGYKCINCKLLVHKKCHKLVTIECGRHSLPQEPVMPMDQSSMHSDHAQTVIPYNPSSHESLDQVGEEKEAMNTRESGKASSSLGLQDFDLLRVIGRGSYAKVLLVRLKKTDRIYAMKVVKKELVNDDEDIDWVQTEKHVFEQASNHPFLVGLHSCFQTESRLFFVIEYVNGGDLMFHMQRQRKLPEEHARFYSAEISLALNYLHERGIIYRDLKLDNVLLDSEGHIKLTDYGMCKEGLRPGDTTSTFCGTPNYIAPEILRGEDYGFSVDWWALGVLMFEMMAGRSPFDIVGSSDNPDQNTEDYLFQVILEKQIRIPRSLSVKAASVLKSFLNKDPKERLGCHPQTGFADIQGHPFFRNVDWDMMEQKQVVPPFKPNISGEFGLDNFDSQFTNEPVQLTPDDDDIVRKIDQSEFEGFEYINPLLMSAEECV
# Assay Context: at 0.1 µM
# Description: GSK_PKIS: PKC-iota mean inhibition at 0.1 uM [Nanosyn]
Measure: inhibition (%)

In [3]: df
Out[3]:
                                    compound  measure_unit  quantitative_readout
 0  CCS(=O)(=O)c1ccc(OC)c(Nc2ncc(-c3ccccc3Cl)o2)c1             %                  0.15
 1  CCc1ccc(Oc2nccc(-c3c(-c4ccc(F)cc4)ncn3C3CCNCC3)n2)cc1             %                  0.16
 2  CN1CCN(CCCNc2nc3ccc(Oc4ccc(NC(=O)Nc5cc(C(F)(F)F)ccc5F)cc4)cc3[nH]2)CC1             %                  1.14
 3  C[C@@H](Oc1cc(-n2cnc3ccc(OC4CCN(C)CC4)cc32)sc1C(N)=O)c1ccccc1Cl             %                  1.12
 4  COc1cc(N2CCN(C(C)C)CC2)ccc1Nc1nc(Nc2ccc(F)cc2C(=O)NC[C@@H](O)CO)c2cc[nH]c2n1             %                  2.87
 5     COc1cc(Nc2ncc(-c3ccccc3)o2)cc(OC)c1OC             %                  0.32
 6     O=C(Nc1n[nH]c2nc(-c3ccco3)ccc12)C1CC1             %                  1.28
 7  c1ccc(Oc2ccc(Nc3ncc(-c4ccccc4)o3)cc2)cc1             %                  1.87
 8  COc1ccc2cc(-c3c(-c4ccncc4)nc(-c4ccc([S+](C)[O-])cc4C)n3C)ccc2c1 (configuration not stated)             %                  0.41
 9    O=C1Nc2ccccc2/C1=C/Nc1ccc(-n2cncn2)cc1             %                  2.78
10    Clc1ccc(CNc2nccc(-c3cnn4ncccc34)n2)cc1             %                 -0.38
11  NS(=O)(=O)c1ccc(N/N=C2\C(=O)Nc3ccc(-c4cnco4)cc32)cc1             %                     1
12  CCC(=O)Nc1ccc(C)c(-c2ccc(C(=O)NCC3CC3)cc2)c1             %                  0.11
13  COC(=O)Nc1nc2ccc(Sc3ccc(NC(=O)Nc4cc(C(F)(F)F)ccc4F)cc3)cc2[nH]1             %                 -0.54
14  NC(=O)Cc1ccccc1Oc1nccc(-c2c(-c3ccc(F)cc3)ncn2C2CCNCC2)n1             %                     0
15  COc1ccc2ncn(-c3cc(O[C@H](C)c4ccccc4Cl)c(C(N)=O)s3)c2c1             %                  4.03
16  N#Cc1ccc(Oc2nccc(-c3c(-c4ccc(F)cc4)ncn3C3CCNCC3)n2)cc1             %                  2.09
17     NCc1ccc(-n2c(-c3nonc3N)nc3cnccc32)cc1             %                  4.36
18  O=C(NCC1CC1)c1ccc(-c2cccc(C(=O)NC3CC3)c2)cc1             %                  2.21
19  Fc1ccc(-c2ncn(C3CCNCC3)c2-c2ccnc(Oc3ccc4c(c3)OCO4)n2)cc1             %                  4.45
20  CS(=O)(=O)CCNCc1cc(-c2cc3c(Nc4ccc(OCc5cccc(F)c5)c(Cl)c4)ncnc3s2)cs1             %                  1.33
21  C[C@@H](Oc1cc(-n2cnc3ccc(OCC4CCN(C)CC4)cc32)sc1C(N)=O)c1ccccc1Cl             %                  1.84

----------
# Tested Target: Macrophage-stimulating protein receptor (Homo sapiens) (UniProt Q04912)
# Sequence (Q04912 25-304 limits assumed): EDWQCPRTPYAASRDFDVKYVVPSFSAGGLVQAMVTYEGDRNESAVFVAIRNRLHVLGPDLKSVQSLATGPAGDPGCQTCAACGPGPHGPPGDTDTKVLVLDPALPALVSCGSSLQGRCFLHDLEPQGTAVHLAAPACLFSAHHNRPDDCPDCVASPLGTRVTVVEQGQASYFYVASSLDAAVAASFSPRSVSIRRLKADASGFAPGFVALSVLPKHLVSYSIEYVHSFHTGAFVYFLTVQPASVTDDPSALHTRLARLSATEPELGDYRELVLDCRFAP
# Sequence (Q04912 310-1400 limits assumed): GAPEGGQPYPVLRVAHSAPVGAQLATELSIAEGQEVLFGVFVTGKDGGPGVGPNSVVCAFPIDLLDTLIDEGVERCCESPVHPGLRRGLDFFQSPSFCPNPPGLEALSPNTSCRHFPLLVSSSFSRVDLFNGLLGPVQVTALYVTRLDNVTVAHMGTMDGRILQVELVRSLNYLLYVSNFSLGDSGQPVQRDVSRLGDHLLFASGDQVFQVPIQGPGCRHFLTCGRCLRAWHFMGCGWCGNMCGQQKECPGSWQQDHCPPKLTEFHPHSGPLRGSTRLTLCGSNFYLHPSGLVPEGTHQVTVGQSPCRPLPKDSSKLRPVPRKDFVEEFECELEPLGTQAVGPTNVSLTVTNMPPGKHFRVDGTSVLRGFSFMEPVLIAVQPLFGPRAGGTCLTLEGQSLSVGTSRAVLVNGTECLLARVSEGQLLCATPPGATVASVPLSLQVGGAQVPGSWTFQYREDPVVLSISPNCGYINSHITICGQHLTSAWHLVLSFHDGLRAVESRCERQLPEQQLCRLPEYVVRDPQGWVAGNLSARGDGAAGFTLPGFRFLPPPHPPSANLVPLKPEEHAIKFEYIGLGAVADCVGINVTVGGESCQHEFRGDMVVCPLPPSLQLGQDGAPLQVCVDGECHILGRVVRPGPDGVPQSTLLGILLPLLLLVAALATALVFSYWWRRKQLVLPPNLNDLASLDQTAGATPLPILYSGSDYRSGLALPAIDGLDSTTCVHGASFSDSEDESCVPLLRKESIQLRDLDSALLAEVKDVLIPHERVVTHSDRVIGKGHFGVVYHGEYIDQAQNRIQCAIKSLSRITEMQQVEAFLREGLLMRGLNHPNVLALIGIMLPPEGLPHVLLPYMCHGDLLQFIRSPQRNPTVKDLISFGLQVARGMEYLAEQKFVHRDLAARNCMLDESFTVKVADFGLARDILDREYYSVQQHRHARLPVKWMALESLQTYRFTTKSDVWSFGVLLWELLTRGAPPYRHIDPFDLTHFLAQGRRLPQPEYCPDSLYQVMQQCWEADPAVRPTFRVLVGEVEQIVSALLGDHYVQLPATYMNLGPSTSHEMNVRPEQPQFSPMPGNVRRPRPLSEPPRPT
# Assay Context: at 1 µM
# Description: GSK_PKIS: RON mean inhibition at 1 uM [Nanosyn]
This section presents molecules with their documented inhibition values.
Measure: inhibition

                               input_smiles     measure  result
0  COC(=O)Nc1nc2ccc(Sc3ccc(NC(=O)Nc4cc(C(F)(F)F)ccc4F)cc3)cc2[nH]1  inhibition  -0.55%
1     COc1cc(Nc2ncc(-c3ccccc3)o2)cc(OC)c1OC  inhibition   3.47%
2  COc1cc2ncn(-c3cc(OCCc4ccccc4)c(C(N)=O)s3)c2cc1OC  inhibition   6.81%
3  CCN(CC)Cc1ccc(Nc2nccc(-c3cnn4ncccc34)n2)cc1  inhibition   22.4%
4  CN(c1ccc(NC(=O)Nc2c(Cl)cccc2Cl)cc1)c1ccnc(Nc2cccc(CS(C)(=O)=O)c2)n1  inhibition   82.1%

----------
# Tested Target: Cyclin-dependent kinase 5 (Homo sapiens) (UniProt Q00535);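 note: enzyme tested as the CDK5/p35 complex, values are mean percent inhibition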
# Sequence (Q00535 whole entry, looked up): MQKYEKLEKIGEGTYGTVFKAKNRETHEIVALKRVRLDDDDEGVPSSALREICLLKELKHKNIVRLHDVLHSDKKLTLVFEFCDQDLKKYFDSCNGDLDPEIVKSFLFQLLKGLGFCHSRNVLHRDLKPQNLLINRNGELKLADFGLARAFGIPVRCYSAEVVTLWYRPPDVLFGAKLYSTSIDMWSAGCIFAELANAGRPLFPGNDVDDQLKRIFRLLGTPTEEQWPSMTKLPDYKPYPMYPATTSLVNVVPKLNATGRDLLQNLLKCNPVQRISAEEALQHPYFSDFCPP
# Assay Context: at 0.1 µM
This section presents molecules with their documented inhibition values.
Measure: inhibition (%)

                                   molecule  measure_unit  quantitative_readout
0  NC(=O)c1ccc(Oc2nccc(-c3c(-c4ccc(F)cc4)ncn3C3CCNCC3)n2)cc1             %                   1.5
1  NS(=O)(=O)c1ccc(Nc2cc(-c3ccc(O)c(F)c3)n[nH]2)cc1             %                  20.1
2  Cc1nnc(-c2ccc(C)c(-c3ccc(C(=O)NCc4ccc(Cl)cc4)cc3)c2)o1             %                 -2.39
3  CCN(CC)Cc1ccc(Nc2nccc(-c3cnn4ncccc34)n2)cc1             %                  32.1
4  COc1cccc(-n2cnc3c(N/N=C/c4ccncc4)ncnc32)c1             %                 -3.69
5  Nc1nccc(-c2c(-c3ccc(F)cc3)ncn2C2CCC(O)CC2)n1 (stereo not given)             %                  0.55
6     O=C(Nc1n[nH]c2nc(-c3ccco3)ccc12)C1CC1             %                 -0.11
7  COc1cc2ncn(-c3cc(OCc4cccs4)c(C(N)=O)s3)c2cc1OC             %                 -2.83
8  C[C@@H](Oc1cc(-n2cnc3ccc(OCC4CCN(C)CC4)cc32)sc1C(N)=O)c1ccccc1Cl             %                  1.33
9  NC(=O)Cc1ccccc1Oc1nccc(-c2c(-c3ccc(F)cc3)ncn2C2CCNCC2)n1             %                  0.66

----------
# Tested Target: NT-3 growth factor receptor (Homo sapiens) (UniProt Q16288);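 note: mean TRKC inhibition from the GSK PKIS kinase inhibitor set, with assays run by Nanosyn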
# Sequence (Q16288 32-839 limits assumed): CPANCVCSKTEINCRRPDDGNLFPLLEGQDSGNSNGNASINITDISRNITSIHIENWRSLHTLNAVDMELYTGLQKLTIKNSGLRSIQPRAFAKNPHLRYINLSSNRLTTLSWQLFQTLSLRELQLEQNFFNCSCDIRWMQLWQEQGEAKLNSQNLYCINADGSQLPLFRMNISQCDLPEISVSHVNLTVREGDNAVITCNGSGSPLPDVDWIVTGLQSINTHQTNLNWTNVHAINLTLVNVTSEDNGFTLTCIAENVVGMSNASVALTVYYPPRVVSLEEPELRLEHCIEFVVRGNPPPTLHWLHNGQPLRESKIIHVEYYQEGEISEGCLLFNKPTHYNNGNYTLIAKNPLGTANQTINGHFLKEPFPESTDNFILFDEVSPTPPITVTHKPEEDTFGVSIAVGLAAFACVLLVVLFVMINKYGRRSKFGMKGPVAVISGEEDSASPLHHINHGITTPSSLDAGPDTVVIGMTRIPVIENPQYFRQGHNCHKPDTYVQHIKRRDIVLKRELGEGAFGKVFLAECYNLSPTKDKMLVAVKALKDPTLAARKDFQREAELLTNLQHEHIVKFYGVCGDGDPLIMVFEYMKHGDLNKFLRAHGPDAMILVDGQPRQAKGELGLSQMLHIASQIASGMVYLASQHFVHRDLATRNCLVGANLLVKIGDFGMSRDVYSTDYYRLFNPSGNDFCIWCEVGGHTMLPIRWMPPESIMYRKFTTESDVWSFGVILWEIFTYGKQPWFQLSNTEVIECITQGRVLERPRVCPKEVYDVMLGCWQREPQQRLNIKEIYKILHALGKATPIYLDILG
# Assay Context: at 1 µM
Note: every record was labeled by where its inhibition sits among low = under 4%, mid = from 4% up to 40%, high = 40% and over

>>> print(df.to_string())
                               input_smiles  discrete_label
0  C[C@@H](Oc1cc(-n2cnc3ccc(OCC4CCN(C)CC4)cc32)sc1C(N)=O)c1ccccc1Cl             mid
1  O=C1NC(=O)C(c2cccc(Cl)c2)=C1Nc1ccc(Cl)c(C(=O)O)c1             low
2  CN(C)CCCNc1nccc(-c2c(-c3ccc(F)cc3)nn3cc(C(F)(F)F)ccc23)n1             low
3  COc1cccc(-n2cnc3c(N/N=C/c4ccncc4)ncnc32)c1             mid
4  NS(=O)(=O)c1ccc(N/N=C2\C(=O)Nc3ccc(-c4cnco4)cc32)cc1            high
5  O=C(Nc1n[nH]c2nc(-c3ccc(O)cc3)c(Br)cc12)C1CC1             mid
